- System: 926638-142-R-J1-PDC complex spheroid viability
- experiment-notes: Anticancer human tumor 926638-142-R-J1-PDC patient-derived endometrial carcinoma cell line growth inhibition [POLQ]
- measurement-setup: curve of first compound; second compound 0.1 µM
- Experimental: Multicellular complex tumor spheroid response to Polymerase (POL) inhibitors (novobiocin, ART-558, RP6685) in combination with a variety of drugs and investigational agents in selected tumor cell lines The POL inhibitors (novobiocin, ART-558, and RP6685) were evaluated both individually and in combination with standard of care and investigational anticancer small molecules within a complex spheroid model of solid tumors. . […]
pIC50: −log10 of the molar value.
Each entry below carries its reported pIC50.

O=C(c1cc(Cc2n[nH]c(=O)c3ccccc23)ccc1F)N1CCN(C(=O)C2CC2)CC1 + COC1C(OC(N)=O)C(O)C(Oc2ccc3c(O)c(NC(=O)c4ccc(O)c(CC=C(C)C)c4)c(=O)oc3c2C)OC1(C)C = < 5.00

Summary for this molecule, CC(=O)O[C@H]1C(=O)[C@@]2(C)[C@H]([C@H](OC(=O)c3ccccc3)[C@]3(O)C[C@H](OC(=O)[C@H](O)[C@@H](NC(=O)c4ccccc4)c4ccccc4)C(C)=C1C3(C)C)[C@]1(OC(C)=O)CO[C@@H]1C[C@@H]2O + Cc1cccc(N(C)C(=O)C2C(O)CCN2c2nc(C)cc(C(F)(F)F)c2C#N)c1 : pIC50 is < 5.52

Summary for this molecule, C=CC(=O)N1CCN(c2nc(=O)n(-c3c(C)ccnc3C(C)C)c3nc(-c4c(O)cccc4F)c(F)cc23)C(C)C1 (centres undefined) + COC1C(OC(N)=O)C(O)C(Oc2ccc3c(O)c(NC(=O)c4ccc(O)c(CC=C(C)C)c4)c(=O)oc3c2C)OC1(C)C : pIC50 is < 5.00

Summary for this molecule, C=CC(=O)N1CCN(c2nc(=O)n(-c3c(C)ccnc3C(C)C)c3nc(-c4c(O)cccc4F)c(F)cc23)C(C)C1 (centres undefined) + Cc1cccc(N(C)C(=O)C2C(O)CCN2c2nc(C)cc(C(F)(F)F)c2C#N)c1 : pIC50 is < 5.00

###

- Test system: 926638-142-R-J1-PDC complex spheroid viability
- experiment-notes: Anticancer human tumor 926638-142-R-J1-PDC cell line growth inhibition [POLQ];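 note: spheroids exposed to drugs for one week before readout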;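 for viability, T/C: percent viability relative to DMSO vehicle control wells set as 100%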
- measurement-setup: second compound 3.16 µM; first compound 10 µM; stronger effect = lower value
// thresholds for viability, T/C classes: bottom range (below 20%), center range (20% to below 40%), top range (40% or more)

Reference set, count: 4
CCc1cc2c(N3CCc4c(cc(Cn5ccnc5)cc4-c4cn(C)nc4C(F)(F)F)C3=O)ccnc2c(OC)n1 + COC1C(OC(N)=O)C(O)C(Oc2ccc3c(O)c(NC(=O)c4ccc(O)c(CC=C(C)C)c4)c(=O)oc3c2C)OC1(C)C = center range
O=C(c1cc(Cc2n[nH]c(=O)c3ccccc23)ccc1F)N1CCN(C(=O)C2CC2)CC1 + Cc1cccc(N(C)C(=O)C2C(O)CCN2c2nc(C)cc(C(F)(F)F)c2C#N)c1 = top range
CC1COCCN1c1cc(-c2ccnn2C)c2ccnc(-c3ccn[nH]3)c2n1 (stereo unspecified) + Nc1ccc(C#CCN(C(=O)Cc2ncc(C(F)(F)F)cc2C(F)(F)F)c2ccc(F)cc2)nn1 = bottom range
CC1COCCN1c1cc(-c2ccnn2C)c2ccnc(-c3ccn[nH]3)c2n1 (stereo unspecified) + Cc1cccc(N(C)C(=O)C2C(O)CCN2c2nc(C)cc(C(F)(F)F)c2C#N)c1 = bottom range

Could you now consider this next compound?
[ask] Hi, small favor: classify CNCc1ccc(-c2[nH]c3cc(F)cc4c3c2CCNC4=O)cc1 + Cc1cccc(N(C)C(=O)C2C(O)CCN2c2nc(C)cc(C(F)(F)F)c2C#N)c1 by its viability, T/C when you get a moment.
[reply] top range

###

- Test system: 926638-142-R-J1-PDC complex spheroid viability
- experiment-notes: Anticancer human tumor 926638-142-R-J1-PDC cell line growth inhibition [POLQ];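 note: spheroids exposed to drugs for one week before readout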;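 for viability, T/C: percent viability relative to DMSO vehicle control wells set as 100%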
- measurement-setup: second compound 1 µM; first compound 3.16 µM; stronger effect = lower value
quantity: viability, T/C (%)
The reply should contain only the number, in %.

Solved entries:
CNCc1ccc(-c2[nH]c3cc(F)cc4c3c2CCNC4=O)cc1 + COC1C(OC(N)=O)C(O)C(Oc2ccc3c(O)c(NC(=O)c4ccc(O)c(CC=C(C)C)c4)c(=O)oc3c2C)OC1(C)C = 94.8
CC(C)n1c(=O)n(C)c2cnc3cc(F)c(-c4ccc(OCCCN5CCCCC5)nc4)cc3c21 + Cc1cccc(N(C)C(=O)C2C(O)CCN2c2nc(C)cc(C(F)(F)F)c2C#N)c1 = 107
Nc1ccn(C2OC(CO)C(O)C2(F)F)c(=O)n1 (stereo not given) + COC1C(OC(N)=O)C(O)C(Oc2ccc3c(O)c(NC(=O)c4ccc(O)c(CC=C(C)C)c4)c(=O)oc3c2C)OC1(C)C = 48.7

Summary for this compound, CCc1cc2c(N3CCc4c(cc(Cn5ccnc5)cc4-c4cn(C)nc4C(F)(F)F)C3=O)ccnc2c(OC)n1 + COC1C(OC(N)=O)C(O)C(Oc2ccc3c(O)c(NC(=O)c4ccc(O)c(CC=C(C)C)c4)c(=O)oc3c2C)OC1(C)C : viability, T/C is 22.5

Summary for this compound, CCc1cc2c(N3CCc4c(cc(Cn5ccnc5)cc4-c4cn(C)nc4C(F)(F)F)C3=O)ccnc2c(OC)n1 + Cc1cccc(N(C)C(=O)C2C(O)CCN2c2nc(C)cc(C(F)(F)F)c2C#N)c1 : viability, T/C is 37.3

Summary for this compound, COc1cccc2c1C(=O)c1c(O)c3c(c(O)c1C2=O)CC(O)(C(=O)CO)CC3OC1CC(N)C(O)C(C)O1 (stereo not given) + Cc1cccc(N(C)C(=O)C2C(O)CCN2c2nc(C)cc(C(F)(F)F)c2C#N)c1 : viability, T/C is 0.14

###

- Tested on: 926638-142-R-J1-PDC complex spheroid viability
- experiment-notes: Anticancer human tumor 926638-142-R-J1-PDC cell line growth inhibition [POLQ];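 note: spheroids exposed to drugs for one week before readout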;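 for viability, T/C: percent viability relative to DMSO vehicle control wells set as 100%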
- measurement-setup: second compound 1 µM; first compound 3.16 µM; stronger effect = lower value
quantity: viability, T/C (%)
The reply should contain only the number, in %.

Solved entries:
COc1cc(C2c3cc4c(cc3C(OC3OC5COC(C)OC5C(O)C3O)C3COC(=O)C23)OCO4)cc(OC)c1O (stereo not given) + Cc1cccc(N(C)C(=O)C2C(O)CCN2c2nc(C)cc(C(F)(F)F)c2C#N)c1 = 67.8
COc1ccc([C@@H](O)c2cc(-c3ncnc4cc(N5CCOCC5)ccc34)c(F)cc2Cl)nn1 + Nc1ccc(C#CCN(C(=O)Cc2ncc(C(F)(F)F)cc2C(F)(F)F)c2ccc(F)cc2)nn1 = 20
O=c1[nH]cc(F)c(=O)[nH]1 + COC1C(OC(N)=O)C(O)C(Oc2ccc3c(O)c(NC(=O)c4ccc(O)c(CC=C(C)C)c4)c(=O)oc3c2C)OC1(C)C = 79.3
CC1COCCN1c1cc(C2(O)CC3CCC(C2)O3)c2cnn(-c3ccn[nH]3)c2n1 (stereo not given) + Cc1cccc(N(C)C(=O)C2C(O)CCN2c2nc(C)cc(C(F)(F)F)c2C#N)c1 = 7.71
Nc1ccn(C2OC(CO)C(O)C2(F)F)c(=O)n1 (stereo not given) + Cc1cccc(N(C)C(=O)C2C(O)CCN2c2nc(C)cc(C(F)(F)F)c2C#N)c1 = 44.2
Nc1ccn(C2OC(CO)C(O)C2(F)F)c(=O)n1 (stereo not given) + Nc1ccc(C#CCN(C(=O)Cc2ncc(C(F)(F)F)cc2C(F)(F)F)c2ccc(F)cc2)nn1 = 49.6
O=c1[nH]cc(F)c(=O)[nH]1 + Cc1cccc(N(C)C(=O)C2C(O)CCN2c2nc(C)cc(C(F)(F)F)c2C#N)c1 = 81.4
CC1COCCN1c1cc(C2(S(C)(=N)=O)CC2)nc(-c2ccnc3[nH]ccc23)n1 (stereo not given) + COC1C(OC(N)=O)C(O)C(Oc2ccc3c(O)c(NC(=O)c4ccc(O)c(CC=C(C)C)c4)c(=O)oc3c2C)OC1(C)C = 77.2
COc1ccc([C@@H](O)c2cc(-c3ncnc4cc(N5CCOCC5)ccc34)c(F)cc2Cl)nn1 + COC1C(OC(N)=O)C(O)C(Oc2ccc3c(O)c(NC(=O)c4ccc(O)c(CC=C(C)C)c4)c(=O)oc3c2C)OC1(C)C = 10.7
C=CC(=O)N1CCN(c2nc(=O)n(-c3c(C)ccnc3C(C)C)c3nc(-c4c(O)cccc4F)c(F)cc23)C(C)C1 (stereo not given) + Cc1cccc(N(C)C(=O)C2C(O)CCN2c2nc(C)cc(C(F)(F)F)c2C#N)c1 = 72.7

Summary for this compound, O=C(Nc1ccc(O)c(NS(=O)(=O)c2ccc(F)cc2)c1)c1ccc(-c2ccccc2)cc1 + COC1C(OC(N)=O)C(O)C(Oc2ccc3c(O)c(NC(=O)c4ccc(O)c(CC=C(C)C)c4)c(=O)oc3c2C)OC1(C)C : viability, T/C is 99.9

Summary for this compound, CC1COCCN1c1cc(C2(S(C)(=N)=O)CC2)nc(-c2ccnc3[nH]ccc23)n1 (stereo not given) + Cc1cccc(N(C)C(=O)C2C(O)CCN2c2nc(C)cc(C(F)(F)F)c2C#N)c1 : viability, T/C is 60.5

Summary for this compound, C#Cc1c(F)ccc2cc(O)cc(-c3ncc4c(N5CC6CCC(C5)N6)nc(OCC56CCCN5CC(F)C6)nc4c3F)c12 (stereo not given) + Nc1ccc(C#CCN(C(=O)Cc2ncc(C(F)(F)F)cc2C(F)(F)F)c2ccc(F)cc2)nn1 : viability, T/C is 81.2
